system: T1, GRIP1_2, Q9Y3R0
T1 sequence (Q9Y3R0 145-248, limits assumed, looked up): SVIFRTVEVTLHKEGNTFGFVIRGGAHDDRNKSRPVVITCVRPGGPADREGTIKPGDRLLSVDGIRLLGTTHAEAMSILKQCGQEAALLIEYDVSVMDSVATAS
procedure.text: holdup assay
Design: key: below the threshold = too weak to quantify, mostly under pKd 3.1 to 4
run.conditions: plain residues with an end cap or a label only (N-terminal biotin on a linker: ado-ado)
readout.name: pKd

binder	observed
PSHPRLQTHV [KIRREL2, Q6UWL6]	below the threshold
STKRKLASAV [NCF1, P14598]	below the threshold
DRIQSCLSDA [SBF1, O95248]	below the threshold
SPDRDRESIV [SCN5A, Q14524]	below the threshold
DTKNYKQTSV [CRIPT, Q9P021]	below the threshold
REEPDHSTEV [CCRL2, O00421]	3.5
SLNANEVEWF [RNF130, Q86XS8]	3.68
QKAPTKEFYA [SDC2, P34741]	below the threshold

meta.source: paper PMC9482650
